ASSAY PROCEDURE: Plasma pharmacokinetics of TRA, ponatinib and metabolites after a single oral 45-mg [14C]ponatinib dose
CONDITION DESCRIPTION: male, human, in vivo, po, 45 mg
ASSAY ENDPOINT: Tmax (h)
Answer with a number only, understood to be in h.

Can you look up the measured Tmax of Cc1ccc(C(=O)Nc2ccc(CN3CCN(C)CC3)c(C(F)(F)F)c2)cc1C#Cc1cnc2cccnn12.Cl [Ponatinib] for me?
5

----------
ASSAY PROCEDURE: Metabolite profiling of plasma (HPLC-radiochromatography)
Format: in vivo, human
CONDITION DESCRIPTION: 0–24 h pooled plasma, % of TRA
Listed here are compounds together with their documented % Distribution in plasma.
Answer with a number only, understood to be in %.

                                   compound            assay_endpoint  readout_unit  value_measured
0   Cc1ccc(C(=O)O)cc1C#Cc1cnc2cccnn12 [M14]  % Distribution in plasma             %            14.9
1  Cc1ccc(C(=O)Nc2ccc(CN3CCN(C)CC3)c(C(F)(F)F)c2)cc1C#Cc1cnc2cccnn12.Cl [Ponatinib]  % Distribution in plasma             %            25.5

Can you look up the measured % Distribution in plasma of Cc1ccc(C(=O)Nc2ccc(C(=O)O)c(C(F)(F)F)c2)cc1C#Cc1cnc2cccnn12 [M23] for me?
7

----------
ASSAY PROCEDURE: Plasma pharmacokinetics of TRA, ponatinib and metabolites after a single oral 45-mg [14C]ponatinib dose
CONDITION DESCRIPTION: male, human, in vivo, po, 45 mg
Protocol: The subject release criterion was defined as follows: the combined urine and fecal radioactivity excretion for two consecutive days should fall below 1% of the dose administered. […] TRA analysis was carried out at ABC Laboratories. The radioactivity in plasma (duplicate per time point) and urine samples (triplicate per time point) was quantitated by direct counting in a Beckman LS6000SC or LS6500 liquid scintillation counter (PerkinElmer Life and Analytical Sciences, Boston, MA, USA). […]
ASSAY ENDPOINT: half-life

Can you look up the measured half-life of `Cc1ccc(C(=O)Nc2ccc(CN3CCN(C)CC3)c(C(F)(F)F)c2)cc1C#Cc1cnc2cccnn12.Cl` for me?
27.4 h

----------
ASSAY PROCEDURE: Metabolite profiling of plasma (HPLC-radiochromatography)
Format: in vivo, human
CONDITION DESCRIPTION: 10 h pooled plasma, % of TRA
Listed here are compounds together with their documented % Distribution in plasma.
Answer with a number only, understood to be in %.

>>> print(df.to_string())
                                   compound  value_measured
0  Cc1ccc(C(=O)Nc2ccc(C(=O)O)c(C(F)(F)F)c2)cc1C#Cc1cnc2cccnn12 [M23]             3.4
1   Cc1ccc(C(=O)O)cc1C#Cc1cnc2cccnn12 [M14]            10.8

Can you look up the measured % Distribution in plasma of Cc1ccc(C(=O)Nc2ccc(CN3CCN(C)CC3)c(C(F)(F)F)c2)cc1C#Cc1cnc2cccnn12.Cl [Ponatinib] for me?
36.3

----------
ASSAY PROCEDURE: Metabolite profiling of plasma (HPLC-radiochromatography)
Assay type: in vivo, human
CONDITION DESCRIPTION: 5 h pooled plasma, % of TRA
ASSAY ENDPOINT: % Distribution in plasma (%)
Answer with a number only, understood to be in %.

In [3]: df
Out[3]:
                 structure_as_smiles  readout_unit  value_measured
0  Cc1ccc(C(=O)O)cc1C#Cc1cnc2cccnn12             %            29.0

Here's the next entry for you.
Can you look up the measured % Distribution in plasma of `Cc1ccc(C(=O)Nc2ccc(CN3CCN(C)CC3)c(C(F)(F)F)c2)cc1C#Cc1cnc2cccnn12.Cl` for me?
42.4
